Biological target: MLK3 (Homo sapiens (Human))
Sequence (Q16584 whole entry): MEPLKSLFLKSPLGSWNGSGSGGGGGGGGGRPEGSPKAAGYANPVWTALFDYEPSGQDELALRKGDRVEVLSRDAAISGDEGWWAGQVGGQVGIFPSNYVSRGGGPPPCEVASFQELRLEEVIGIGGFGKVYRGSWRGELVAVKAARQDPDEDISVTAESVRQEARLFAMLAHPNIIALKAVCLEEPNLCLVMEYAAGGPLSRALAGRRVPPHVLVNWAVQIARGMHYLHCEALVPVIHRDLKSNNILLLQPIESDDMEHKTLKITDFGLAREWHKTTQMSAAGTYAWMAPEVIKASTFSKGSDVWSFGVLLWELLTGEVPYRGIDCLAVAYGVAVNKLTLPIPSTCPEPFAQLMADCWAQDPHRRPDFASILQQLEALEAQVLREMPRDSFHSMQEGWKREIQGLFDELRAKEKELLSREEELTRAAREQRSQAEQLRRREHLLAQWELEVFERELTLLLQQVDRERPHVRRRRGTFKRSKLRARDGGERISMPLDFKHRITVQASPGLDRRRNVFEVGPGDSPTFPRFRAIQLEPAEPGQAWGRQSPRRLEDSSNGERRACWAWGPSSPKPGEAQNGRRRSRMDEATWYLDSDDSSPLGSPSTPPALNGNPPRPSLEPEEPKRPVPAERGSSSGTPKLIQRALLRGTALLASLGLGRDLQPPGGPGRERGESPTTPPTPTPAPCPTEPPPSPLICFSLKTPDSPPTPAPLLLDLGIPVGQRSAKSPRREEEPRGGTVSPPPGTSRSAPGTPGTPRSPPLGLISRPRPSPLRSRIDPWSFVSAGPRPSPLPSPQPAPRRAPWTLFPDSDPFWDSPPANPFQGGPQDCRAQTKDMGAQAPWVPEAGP
Assay: Radiometric Filter Plate MLK3 Assay
Type: biochemical
Conditions: read-out: MK3 IC50
value-type: IC50

compound: O=c1[nH]c2ncc(-c3ccc(N4CCOCC4)cc3)nc2n1-c1ccc2[nH]ccc2c1 [Example 52]
reported-result: 100 to 1000 nM

compound: COc1ccc(-c2cnc3[nH]c(=O)n(-c4ccccc4)c3n2)cc1OC [Example 106]
reported-result: 100 to 1000 nM

compound: COc1ccc(-c2cnc3[nH]c(=O)n(-c4ccc(O)cc4)c3n2)cc1OC [Example 115]
reported-result: 100 to 1000 nM

Next, consider the following compound.
What IC50 value was documented for this compound, CNc1ccc(-c2cnc3[nH]cc(-c4ccc5[nH]ccc5c4)c3c2)cn1 [Example 30] ?
< 100 nM
